- experimental target: Protein cereblon/Androgen receptor (Homo sapiens, UniProt P10275+Q96SW2)
- Sequence (P10275 whole entry, looked up): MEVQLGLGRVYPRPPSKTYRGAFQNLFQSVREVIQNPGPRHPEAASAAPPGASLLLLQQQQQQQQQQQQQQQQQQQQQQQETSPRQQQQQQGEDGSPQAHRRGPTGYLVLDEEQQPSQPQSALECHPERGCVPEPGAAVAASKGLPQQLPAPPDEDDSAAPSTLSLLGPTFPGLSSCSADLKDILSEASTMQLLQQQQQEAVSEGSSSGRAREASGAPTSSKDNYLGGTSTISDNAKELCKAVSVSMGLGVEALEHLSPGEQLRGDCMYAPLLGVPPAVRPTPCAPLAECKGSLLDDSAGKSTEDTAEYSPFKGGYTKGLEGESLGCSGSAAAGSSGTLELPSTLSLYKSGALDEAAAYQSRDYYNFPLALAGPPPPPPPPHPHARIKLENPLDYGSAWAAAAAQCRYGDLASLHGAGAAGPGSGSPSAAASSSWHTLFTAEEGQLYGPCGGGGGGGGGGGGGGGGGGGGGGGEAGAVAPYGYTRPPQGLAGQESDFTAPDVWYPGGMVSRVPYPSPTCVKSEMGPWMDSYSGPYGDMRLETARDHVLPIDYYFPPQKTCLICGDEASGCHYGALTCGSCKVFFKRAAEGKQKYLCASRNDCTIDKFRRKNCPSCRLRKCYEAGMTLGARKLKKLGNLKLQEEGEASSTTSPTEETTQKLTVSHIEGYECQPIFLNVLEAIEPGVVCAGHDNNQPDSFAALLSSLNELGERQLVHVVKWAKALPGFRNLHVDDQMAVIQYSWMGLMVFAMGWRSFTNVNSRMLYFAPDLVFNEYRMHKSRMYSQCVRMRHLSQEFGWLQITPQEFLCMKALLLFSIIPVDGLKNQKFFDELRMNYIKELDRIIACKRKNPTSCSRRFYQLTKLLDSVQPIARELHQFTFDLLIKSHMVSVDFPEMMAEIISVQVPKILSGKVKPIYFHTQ
- Sequence (Q96SW2 whole entry, looked up): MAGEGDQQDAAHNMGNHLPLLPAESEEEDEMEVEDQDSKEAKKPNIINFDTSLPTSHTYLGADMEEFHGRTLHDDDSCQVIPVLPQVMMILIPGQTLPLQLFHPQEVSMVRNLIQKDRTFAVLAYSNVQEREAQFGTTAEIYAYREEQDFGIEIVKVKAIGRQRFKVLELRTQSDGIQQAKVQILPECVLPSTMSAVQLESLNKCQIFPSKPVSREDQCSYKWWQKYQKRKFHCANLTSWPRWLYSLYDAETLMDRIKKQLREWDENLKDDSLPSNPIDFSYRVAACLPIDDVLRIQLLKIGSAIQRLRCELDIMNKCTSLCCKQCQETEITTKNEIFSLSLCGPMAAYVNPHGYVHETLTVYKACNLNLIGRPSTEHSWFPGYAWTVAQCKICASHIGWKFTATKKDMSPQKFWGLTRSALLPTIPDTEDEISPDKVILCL
- method description: Protac activity at CRBN/AR in human VCAP cells assessed as induction of AR degradation at 1 uM by western blot analysis relative to control
- Assay type: cell-based
- conditions: time 24.0 hrs
Here, each record is paired with measured Activity data.
Express your answer in %, writing the number without its unit.

Would you please look over these solved cases?
# molecule, measured quantity, meas value
data = [
    ("CC1(C)[C@H](NC(=O)c2ccc(NCCCCNc3ccc4c(c3)C(=O)N(C3CCC(=O)NC3=O)C4=O)cc2)C(C)(C)[C@H]1Oc1ccc(C#N)c(Cl)c1 (stereo partly specified)", "Activity", 21),
    ("CC1(C)[C@H](NC(=O)c2ccc(N3CCN(C4CN(c5ccc6c(c5)C(=O)N(C5CCC(=O)NC5=O)C6=O)C4)CC3)cc2)C(C)(C)[C@H]1Oc1ccc(C#N)c(Cl)c1 (stereo partly specified)", "Activity", 73),
    ("CC1(C)[C@H](NC(=O)c2ccc(NCCCCCCCCNc3ccc4c(c3)C(=O)N(C3CCC(=O)NC3=O)C4=O)cc2)C(C)(C)[C@H]1Oc1ccc(C#N)c(Cl)c1 (stereo partly specified)", "Activity", 73),
]

IN: Could you tell me which Activity is on file for CC1(C)[C@H](NC(=O)c2ccc(N3CCN(CC4CC5(CCN(c6ccc7c(c6)C(=O)N(C6CCC(=O)NC6=O)C7=O)C5)C4)CC3)cc2)C(C)(C)[C@H]1Oc1ccc(C#N)c(Cl)c1 (stereo partly specified) ?
OUT: 51

IN: Another molecule to look at: CC1(C)[C@H](NC(=O)c2ccc(N3CCN(CCNc4ccc5c(c4)C(=O)N(C4CCC(=O)NC4=O)C5=O)CC3)cc2)C(C)(C)[C@H]1Oc1ccc(C#N)c(Cl)c1 (stereo partly specified)
OUT: 76

IN: Ok, now CC1(C)[C@H](NC(=O)c2ccc(C(=O)N3CCN(C4CN(c5ccc6c(c5)C(=O)N(C5CCC(=O)NC5=O)C6=O)C4)CC3)cc2)C(C)(C)[C@H]1Oc1ccc(C#N)c(Cl)c1 (stereo partly specified)
OUT: 83

###

The entries below come with measured Activity values attached.
- experimental target: Protein cereblon/Androgen receptor (Homo sapiens, UniProt P10275+Q96SW2)
- method description: Protac activity at CRBN/AR in human VCaP cells assessed as induction of AR degradation at 0.001 uM measured after 24 hrs by western blot analysis relative to control
- Format: cell-based
Report as a plain number; the unit % is understood.

Some solved entries appear below for comparison.
# molecule, experimental target, Activity [%]
measured = [
    ("CC1(C)[C@H](NC(=O)c2ccc(N3CCN(C4CCC5(CC4)CCN(c4ccc6c(c4)C(=O)N(C4CCC(=O)NC4=O)C6=O)CC5)CC3)cc2)C(C)(C)[C@H]1Oc1ccc(C#N)c(Cl)c1 (some centres not stated)", "Protein cereblon/Androgen receptor (Homo sapiens, UniProt P10275+Q96SW2)", 14),
    ("CC1(C)[C@H](NC(=O)c2ccc(N3CCN(CC4CC5(CCN(c6ccc7c(c6)C(=O)N(C6CCC(=O)NC6=O)C7=O)C5)C4)CC3)cc2)C(C)(C)[C@H]1Oc1ccc(C#N)c(Cl)c1 (some centres not stated)", "Protein cereblon/Androgen receptor (Homo sapiens, UniProt P10275+Q96SW2)", 16),
    ("CC1(C)[C@H](NC(=O)c2ccc(N3CCN(CCCNc4ccc5c(c4)C(=O)N(C4CCC(=O)NC4=O)C5=O)CC3)cc2)C(C)(C)[C@H]1Oc1ccc(C#N)c(Cl)c1 (some centres not stated)", "Protein cereblon/Androgen receptor (Homo sapiens, UniProt P10275+Q96SW2)", 22),
    ("CC1(C)[C@H](NC(=O)c2ccc(N3CCN(C4CC5(CCN(c6ccc7c(c6)C(=O)N(C6CCC(=O)NC6=O)C7=O)C5)C4)CC3)cc2)C(C)(C)[C@H]1Oc1ccc(C#N)c(Cl)c1 (some centres not stated)", "Protein cereblon/Androgen receptor (Homo sapiens, UniProt P10275+Q96SW2)", 38),
    ("CC1(C)[C@H](NC(=O)c2ccc(C(=O)N3CCN(C4CN(c5ccc6c(c5)C(=O)N(C5CCC(=O)NC5=O)C6=O)C4)CC3)cc2)C(C)(C)[C@H]1Oc1ccc(C#N)c(Cl)c1 (some centres not stated)", "Protein cereblon/Androgen receptor (Homo sapiens, UniProt P10275+Q96SW2)", 71),
    ("CC1(C)[C@H](NC(=O)c2ccc(N3CCN(C4CCC5(CC4)CN(c4ccc6c(c4)C(=O)N(C4CCC(=O)NC4=O)C6=O)C5)CC3)cc2)C(C)(C)[C@H]1Oc1ccc(C#N)c(Cl)c1 (some centres not stated)", "Protein cereblon/Androgen receptor (Homo sapiens, UniProt P10275+Q96SW2)", 15),
    ("CC1(C)[C@H](NC(=O)c2ccc(N3CCN(CC4CCN(c5ccc6c(c5)C(=O)N(C5CCC(=O)NC5=O)C6=O)CC4)CC3)cc2)C(C)(C)[C@H]1Oc1cnc(C#N)c(C(F)(F)F)c1 (some centres not stated)", "Protein cereblon/Androgen receptor (Homo sapiens, UniProt P10275+Q96SW2)", 6),
    ("CC1(C)[C@H](NC(=O)c2ccc(N3CCN(CCCCNc4ccc5c(c4)C(=O)N(C4CCC(=O)NC4=O)C5=O)CC3)cc2)C(C)(C)[C@H]1Oc1ccc(C#N)c(Cl)c1 (some centres not stated)", "Protein cereblon/Androgen receptor (Homo sapiens, UniProt P10275+Q96SW2)", 42),
    ("CC1(C)[C@H](NC(=O)c2ccc(N3CCN(CC4CCN(c5ccc6c(c5)C(=O)N(C5CCC(=O)NC5=O)C6=O)CC4)CC3)cc2)C(C)(C)[C@H]1Oc1ccc(C#N)c(C(F)(F)F)c1 (some centres not stated)", "Protein cereblon/Androgen receptor (Homo sapiens, UniProt P10275+Q96SW2)", 22),
    ("CC1(C)[C@H](NC(=O)c2ccc(NCCCCCCCNc3ccc4c(c3)C(=O)N(C3CCC(=O)NC3=O)C4=O)cc2)C(C)(C)[C@H]1Oc1ccc(C#N)c(Cl)c1 (some centres not stated)", "Protein cereblon/Androgen receptor (Homo sapiens, UniProt P10275+Q96SW2)", 28),
]

IN: Given the entry CC1(C)[C@H](NC(=O)c2ccc(NCCCCCCNc3ccc4c(c3)C(=O)N(C3CCC(=O)NC3=O)C4=O)cc2)C(C)(C)[C@H]1Oc1ccc(C#N)c(Cl)c1 (some centres not stated) , report its measured Activity.
OUT: 69

IN: Moving on to the next molecule: CC1(C)[C@H](NC(=O)c2ccc(NCCCCCCNc3cccc4c3C(=O)N(C3CCC(=O)NC3=O)C4=O)cc2)C(C)(C)[C@H]1Oc1ccc(C#N)c(Cl)c1 (some centres not stated)
OUT: 10

IN: Please answer likewise for CC1(C)[C@H](NC(=O)c2ccc(N3CCN(CCNc4ccc5c(c4)C(=O)N(C4CCC(=O)NC4=O)C5=O)CC3)cc2)C(C)(C)[C@H]1Oc1ccc(C#N)c(Cl)c1 (some centres not stated)
OUT: 58

IN: Repeat with CC1(C)[C@H](NC(=O)c2ccc(N3CCC4(CCC(Nc5ccc6c(c5)C(=O)N(C5CCC(=O)NC5=O)C6=O)CC4)CC3)cc2)C(C)(C)[C@H]1Oc1ccc(C#N)c(Cl)c1 (some centres not stated)
OUT: 13

IN: Now consider CC1(C)[C@H](NC(=O)c2ccc(N3CCN(CCCCCNc4ccc5c(c4)C(=O)N(C4CCC(=O)NC4=O)C5=O)CC3)cc2)C(C)(C)[C@H]1Oc1ccc(C#N)c(Cl)c1 (some centres not stated) .
OUT: 12

IN: Item: CC1(C)[C@H](NC(=O)c2ccc(NCCCCCNc3ccc4c(c3)C(=O)N(C3CCC(=O)NC3=O)C4=O)cc2)C(C)(C)[C@H]1Oc1ccc(C#N)c(Cl)c1 (some centres not stated)
OUT: 49

IN: Cool, now CC1(C)[C@H](NC(=O)c2ccc(N3CCN(CC4CC5(C4)CN(c4ccc6c(c4)C(=O)N(C4CCC(=O)NC4=O)C6=O)C5)CC3)cc2)C(C)(C)[C@H]1Oc1ccc(C#N)c(Cl)c1 (some centres not stated)
OUT: 30

IN: Same read-out for CC1(C)[C@H](NC(=O)c2ccc(C(=O)N3CCN(CC4CCN(c5ccc6c(c5)C(=O)N(C5CCC(=O)NC5=O)C6=O)CC4)CC3)cc2)C(C)(C)[C@H]1Oc1ccc(C#N)c(Cl)c1 (some centres not stated) ?
OUT: 76

###

Recorded Activity for the following compounds
- experimental target: Protein cereblon/Androgen receptor (Homo sapiens, UniProt P10275+Q96SW2)
- method description: Protac activity at CRBN/AR in human VCaP cells assessed as induction of AR degradation at 0.1 uM measured after 24 hrs by western blot analysis relative to control
- Format: cell-based
Lab book: enter the figure in %, no units written.

For orientation, consider the following solved cases.
# compound, experimental target, Activity, %
records = [
    ("CC1(C)[C@H](NC(=O)c2ccc(N3CCN(C4CC5(CCN(c6ccc7c(c6)C(=O)N(C6CCC(=O)NC6=O)C7=O)C5)C4)CC3)cc2)C(C)(C)[C@H]1Oc1ccc(C#N)c(Cl)c1 (stereo partly specified)", "Protein cereblon/Androgen receptor (Homo sapiens, UniProt P10275+Q96SW2)", 87),
    ("CC1(C)[C@H](NC(=O)c2ccc(N3CCN(CCCNc4ccc5c(c4)C(=O)N(C4CCC(=O)NC4=O)C5=O)CC3)cc2)C(C)(C)[C@H]1Oc1ccc(C#N)c(Cl)c1 (stereo partly specified)", "Protein cereblon/Androgen receptor (Homo sapiens, UniProt P10275+Q96SW2)", 54),
    ("CC1(C)[C@H](NC(=O)c2ccc(NCCCCCCCCNc3ccc4c(c3)C(=O)N(C3CCC(=O)NC3=O)C4=O)cc2)C(C)(C)[C@H]1Oc1ccc(C#N)c(Cl)c1 (stereo partly specified)", "Protein cereblon/Androgen receptor (Homo sapiens, UniProt P10275+Q96SW2)", 82),
]

IN: Record CC1(C)[C@H](NC(=O)c2ccc(N3CCN(CCCCNc4ccc5c(c4)C(=O)N(C4CCC(=O)NC4=O)C5=O)CC3)cc2)C(C)(C)[C@H]1Oc1ccc(C#N)c(Cl)c1 (stereo partly specified) : what is its Activity with Protein cereblon/Androgen receptor (Homo sapiens, UniProt P10275+Q96SW2)?
OUT: 84

IN: Okay, and CC1(C)[C@H](NC(=O)c2ccc(N3CCN(CCCCCNc4ccc5c(c4)C(=O)N(C4CCC(=O)NC4=O)C5=O)CC3)cc2)C(C)(C)[C@H]1Oc1ccc(C#N)c(Cl)c1 (stereo partly specified) ?
OUT: 85

Attribution: ChEMBL document CHEMBL4842367
